- SYSTEM NAME: Wild type TGMV AL1 fused to the Gal4 DNA binding domain (pNSB736) (tomato golden mosaic virus (TGMV))
MEASURE: oligomer. (oligomerization activity relative to wild type)

Memo: AL1 E--N140 + KEE146 (Ala4+5) fused to the Gal4 activation domain (pNSB757) (other) MPSHPKRFQINAKNYFLTYPQCSLSKEESLSQLQALNTPINKKFIKICRELHEDGQPHLHVLIQFEGKYCCQNQRFFDLVSPTRSAHFHPNIQRAKSSSDVKTYIDKDGDTLVWGEFQVDGRSARGGCQTSNDAAAAALAASSAAAALQIIREKIPEKYLFQFHNLNSNLDRIFDKTPEPWLPPFHVSSFTNVPDEMRQWAENYFGKSSAARPERPISIIIEGDSRTGKTMWARSLGPHNYLSGHLDLNSRVYSNKVEYNVIDDVTPQYLKLKHWKELIGAQRDWQTNCKYGKPVQIKGGIPSIVLCNPGEGASYKVFLDKEENTPLKNWTFHNAKFVFLNSPLYQSSTQSS , reported oligomer. (oligomerization activity relative to wild type): 88 relative to wild type (100)
